Assay: qHTS Assay for Lipid Storage Modulators in Drosophila S3 Cells;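 also: cells counted by Cell Tracker Red CMTPX staining in the red channel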
Conditions: BODIPY lipid droplet fluorescence, 18-24 h, cells fed with added oleic acid; measured here: cell count max response
Out of some 320,000 compounds screened, about 2,100 (0.66%) were called active. About 53% were inconclusive and are not listed. What follows is part of a selection rich in actives, with near analogues and random picks from the rest.
Measured cell number change, listed per entry for reference.

molecule | measurement_unit | cell number change
N#C/C(=C\c1ccc([N+](=O)[O-])o1)c1nc2ccccc2[nH]1 | % | -21.1
CC(C)Nc1nc(NC(C)C)nc(Nn2cnnc2)n1 | % | -7.52
COC(=O)c1c(NC(=O)CC2Nc3ccccc3NC2=O)sc(C)c1C (stereo not given) | % | 18.7
O=C(CN(Cc1ccccc1)S(=O)(=O)c1ccccc1)N/N=C/c1ccc([N+](=O)[O-])cc1 | % | -4.65
Cc1cccc(C)c1OCC(=O)N1CC2(C)CC1CC(C)(C)C2 (stereo not given) | % | 24
CC1(C)c2[nH]c3ccccc3c2C[C@H]2C(=O)N(CCCO)CC(=O)N21 | % | 7.32
CC1=NN(C(=O)Cc2ccc([N+](=O)[O-])cc2)C(O)(C(F)(F)C(F)(F)F)C1 (stereo not given) | % | 24
COc1ccc(C(C)=O)cc1COC(=O)CNC(=O)c1ccc(Cl)cc1 | % | -0.097
COc1ccc(-c2c3c(=O)n(C)c(=O)n(C)c3cn2-c2ccccc2O)cc1 | % | 9.81
O=C(NC(Cc1ccccc1)C(=O)O)c1ccco1 (stereo not given) | % | 6.62
OCC[n+]1ccc(/C=C/c2c[nH]c3ccccc23)cc1 | % | -1.83
COc1ccc(/C=N/Nc2nc(-c3cccnc3)nc3ccccc23)cc1OC | % | -0.944
CC1(C)CC2CC(C)(CN2C(=O)COC(=O)c2ccc(Cl)c(N)c2)C1 (stereo not given) | % | 7.11
C=CCn1c(CCNC(=O)c2ccc(Cl)c(Cl)c2)nnc1SCCOc1ccc(OC)cc1 | % | -3.68
CCOC(=O)c1sc(NC(=O)c2cccs2)nc1C | % | 7.32
CCC(C)C1NC(=S)N(C2CCCCC2)C1=O (stereo not given) | % | -20.3
CC(C)(C)OC(=O)NCCCC(CCCNC(=O)OC(C)(C)C)C(=O)O | % | -6.12
C[n+]1ccc(/C=C/c2c[nH]c3ccccc23)cc1 | % | 5.59
CC(C)CNC(=O)CC1Nc2ccccc2NC1=O (stereo not given) | % | -19.4
CCOCCCNC(=O)c1cccs1 | % | 17.5
CC(=O)N/C(=C\c1ccccc1)C(=O)OCC(=O)N(C)C1CCCCC1 | % | 11.6
COc1ccc(C2CC(c3ccc(Br)cc3)=NN2C(=O)CSC2=NCCS2)cc1 (stereo not given) | % | -2.75
N#C/C(=C\c1ccc(-c2ccccc2C(=O)O)o1)c1nc2ccccc2[nH]1 | % | -1.22
C/C(=N/N=C1/NC(=O)CC(C(=O)Nc2ccccc2)S1)c1cccs1 (stereo not given) | % | 1.13
CC(C)Nc1nc(NC(C)C)nc(SCC(N)=O)n1 | % | -10.2
CC(C)C(=O)Nc1cc(=O)[nH]c2ncnn12 | % | -10.1
CCCCN(C(=S)NC(=O)c1ccccc1)c1c(N)n(Cc2ccccc2)c(=O)[nH]c1=O | % | -12.7
Cc1ccc2nc(/C(C#N)=C/c3cn[nH]c3-c3ccc(F)cc3)[nH]c2c1 | % | -24.5
COCCCNC(=O)CC(NS(=O)(=O)c1ccc(C)cc1)c1ccco1 (stereo not given) | % | 0.789
CCOCCCNC(=O)c1c(-c2ccccc2)noc1C | % | -15.4
CN1CCc2nc(NC(=O)c3cccc(S(=O)(=O)N4CCc5ccccc54)c3)sc2C1 | % | 12.6
CCN1CCN(c2nc3sc4c(c3c(=O)n2-c2ccc(OC)cc2)CCCCC4)CC1 | % | -9.24
O=C(NCCCCNC(=O)c1cccs1)c1cccs1 | % | -29
Cc1ccc2nc(/C(C#N)=C\c3ccc(Oc4ccc(C(F)(F)F)cc4[N+](=O)[O-])cc3)[nH]c2c1 | % | 1.55
N#CCCN(C(=O)COc1ccc(C#N)cc1)c1ccc(F)cc1 | % | 6.15
O=C(COC(=O)C1COc2ccccc2O1)Nc1cccc(Cl)c1 (stereo not given) | % | -13.4
COc1ccc(COC(=O)c2cccc(S(=O)(=O)N3CCCC3)c2)cc1F | % | -0.63
O=C(Nc1ccc(F)cc1)N1CCCN(c2ccc(C(F)(F)F)cn2)CC1 | % | -1.28
CCOC(=O)c1c(C)[nH]c(NC(=O)Nc2ccc(NC(C)=O)cc2)c1C | % | 22.7
CC(C)(C)OC(=O)NCCCCCO | % | -1.04
Cc1ccc(NC(=O)N2CCCC(C(=O)O)C2)cc1 (stereo not given) | % | -2.63
CC(=O)Nc1ccc(OCCCNC(=O)c2c(-c3ccccc3)noc2C)cc1 | % | -3.99
O=C(Nc1cc(=O)[nH]c2ncnn12)c1ccccc1 | % | -8.14
O=C1/C(=C/c2cccs2)SC(=S)N1CCCC(=O)N(CCO)c1ccccc1 | % | 6.09
CC(=O)N1CCN(S(=O)(=O)c2cccc(C(=O)OCN3C(=O)c4ccccc4C3=O)c2)CC1 | % | 22.4
